Molecular target: Eukaryotic translation initiation factor 4E (Mus musculus) + Eukaryotic translation initiation factor 4 gamma 1 (Homo sapiens) (UniProt P63073+Q04637)
Sequence (P63073 whole entry, looked up, the tested form may be a part): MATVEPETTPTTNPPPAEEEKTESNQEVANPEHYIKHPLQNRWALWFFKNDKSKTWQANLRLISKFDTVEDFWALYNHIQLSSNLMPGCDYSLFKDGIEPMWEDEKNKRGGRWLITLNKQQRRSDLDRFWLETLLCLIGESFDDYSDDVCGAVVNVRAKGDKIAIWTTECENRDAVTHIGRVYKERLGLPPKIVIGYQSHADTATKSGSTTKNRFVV
Sequence (Q04637 whole entry, looked up, the tested form may be a part): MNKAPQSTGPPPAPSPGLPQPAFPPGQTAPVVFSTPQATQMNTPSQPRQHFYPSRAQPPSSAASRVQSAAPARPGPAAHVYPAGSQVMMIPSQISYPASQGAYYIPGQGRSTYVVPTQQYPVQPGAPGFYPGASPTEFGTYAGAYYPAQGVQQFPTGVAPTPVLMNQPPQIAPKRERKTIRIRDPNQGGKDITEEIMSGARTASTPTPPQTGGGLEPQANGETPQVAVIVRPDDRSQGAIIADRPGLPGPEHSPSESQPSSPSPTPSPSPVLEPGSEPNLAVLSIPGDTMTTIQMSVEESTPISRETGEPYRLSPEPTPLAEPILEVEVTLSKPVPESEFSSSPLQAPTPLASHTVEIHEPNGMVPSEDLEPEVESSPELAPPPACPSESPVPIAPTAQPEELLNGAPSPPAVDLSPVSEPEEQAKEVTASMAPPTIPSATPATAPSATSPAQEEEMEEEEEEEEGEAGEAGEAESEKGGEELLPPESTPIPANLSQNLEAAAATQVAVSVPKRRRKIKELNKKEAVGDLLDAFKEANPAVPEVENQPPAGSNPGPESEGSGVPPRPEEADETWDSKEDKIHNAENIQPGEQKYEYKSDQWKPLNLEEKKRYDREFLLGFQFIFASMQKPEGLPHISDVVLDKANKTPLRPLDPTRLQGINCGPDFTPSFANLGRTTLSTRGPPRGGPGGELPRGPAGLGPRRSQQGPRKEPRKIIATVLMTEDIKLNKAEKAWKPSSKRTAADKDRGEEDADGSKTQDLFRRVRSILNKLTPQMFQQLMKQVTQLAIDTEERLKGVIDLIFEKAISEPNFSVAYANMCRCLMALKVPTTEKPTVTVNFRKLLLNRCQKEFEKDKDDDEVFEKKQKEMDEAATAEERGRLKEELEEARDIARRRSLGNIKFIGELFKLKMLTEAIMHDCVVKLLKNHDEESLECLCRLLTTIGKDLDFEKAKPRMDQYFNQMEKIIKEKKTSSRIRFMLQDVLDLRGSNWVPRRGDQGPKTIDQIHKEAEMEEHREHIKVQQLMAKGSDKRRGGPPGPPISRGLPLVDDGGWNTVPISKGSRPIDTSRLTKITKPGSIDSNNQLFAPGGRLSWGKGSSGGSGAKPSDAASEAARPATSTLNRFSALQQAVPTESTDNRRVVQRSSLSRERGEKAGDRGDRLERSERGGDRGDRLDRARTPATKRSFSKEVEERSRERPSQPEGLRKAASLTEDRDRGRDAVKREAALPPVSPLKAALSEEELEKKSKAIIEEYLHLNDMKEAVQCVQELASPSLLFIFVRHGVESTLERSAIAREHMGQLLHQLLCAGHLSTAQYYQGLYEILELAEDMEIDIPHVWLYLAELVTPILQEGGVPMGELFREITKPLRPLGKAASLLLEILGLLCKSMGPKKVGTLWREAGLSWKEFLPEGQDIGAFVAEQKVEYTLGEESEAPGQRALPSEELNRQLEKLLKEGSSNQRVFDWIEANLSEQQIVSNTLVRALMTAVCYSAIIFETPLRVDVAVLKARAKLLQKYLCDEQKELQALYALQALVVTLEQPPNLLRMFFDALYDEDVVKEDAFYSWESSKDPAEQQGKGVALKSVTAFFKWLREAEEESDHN
Experiment: eIF4E–eIF4G protein interaction inhibitors, primary screen, biochemical, uHTS, TR-FRET, eIF4GI fragment (AID 782);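 note: 0% = full FRET control wells and 100% = background wells lacking eIF4GI fragment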
Details: TR-FRET eIF4E-eIF4GI(517-606) binding, 2 h; at 21.7 µM
In all, about 220,000 compounds went through this assay and about 800 (0.36%) were called active.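 Rule for the calls: active = inhibition above about 30% (limit read from the data); inactive = the rest.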 Many of the other results were omitted from the sample, so actives are more common in it than they were.
// one of 1 (yes) = active, 0 (no) = inactive, no free text

Past entries and their recorded results:
| compound | class label |
| --- | --- |
| CC(C)(C)NC(=O)NC(=O)COC(=O)Cc1c(F)cccc1Cl | 0 (no) |
| CCCn1nc2cc(C(=O)NCc3ccccc3)ccc2c1OCC | 0 (no) |
| O=C(NCc1ccccn1)c1ccc2nc(-c3ccco3)c(-c3ccco3)nc2c1 | 0 (no) |

Consider now this further compound.
Dear colleague, could you share the recorded outcome for "COc1ccc(N2CCN(C(=S)Nc3ccc(S(N)(=O)=O)cc3)CC2)cc1" when you have a moment?
0 (no)

====

Molecular target: Eukaryotic translation initiation factor 4E (Mus musculus) + Eukaryotic translation initiation factor 4 gamma 1 (Homo sapiens) (UniProt P63073+Q04637)
Experiment: eIF4E–eIF4G protein interaction inhibitors, primary screen, biochemical, uHTS, TR-FRET, eIF4GI fragment (AID 782);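 note: 0% = full FRET control wells and 100% = background wells lacking eIF4GI fragment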
Settings: TR-FRET eIF4E-eIF4GI(517-606) binding, 2 h; at 21.7 µM
The whole screen tested about 220,000 compounds, of which about 800 (0.36%) were called active.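 How the source made its calls: active means inhibition above about 30% (limit read from the data); inactive means the rest.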 For the sample, actives were picked, then their nearest neighbours and some compounds at random.
// one of yes (1) for active, no (0) for inactive, no free text

Dear colleague, could you share the recorded outcome for CC1(C)C(c2cccs2)=[N+]([O-])C2(CCCCC2=O)N1O (stereo not drawn) when you have a moment?
no (0)

Dear colleague, could you share the recorded outcome for "COc1cc(C(=O)OCc2ccc([N+](=O)[O-])cc2)cc(OC)c1OC" when you have a moment?
no (0)

Dear colleague, could you share the recorded outcome for "Nc1ccc(S(=O)(=O)Nc2nccc(/C=C/c3ccc(Br)s3)n2)cc1" when you have a moment?
no (0)

====

Target: Eukaryotic translation initiation factor 4E (Mus musculus) + Eukaryotic translation initiation factor 4 gamma 1 (Homo sapiens) (UniProt P63073+Q04637)
Test: eIF4E–eIF4G protein interaction inhibitors, primary screen, biochemical, uHTS, TR-FRET, eIF4GI fragment (AID 782);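 note: 0% = full FRET control wells and 100% = background wells lacking eIF4GI fragment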
Details: TR-FRET eIF4E-eIF4GI(517-606) binding, 2 h; at 21.7 µM
Out of some 220,000 compounds screened, about 800 (0.36%) were called active.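 How the source made its calls: active means inhibition above about 30% (limit read from the data); inactive means the rest.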 Many of the other results were omitted from the sample, so actives are more common in it than they were.
// one of y = active, n = inactive, no free text

| molecule | class label |
| --- | --- |
| CCOC(=O)c1cnc2[nH]c3ccccc3n2c1=O | n |
| FC(F)(F)Oc1ccc(-c2cn3cccnc3n2)cc1 | n |
| O=C1c2cccc(OCC(=O)N3N=C(c4cccs4)CC3c3ccc(F)cc3)c2CCN1Cc1ccccc1 (stereo not given) | n |
| Cc1ccc(OS(=O)(=O)c2ccc(-c3csc(C)n3)s2)c(C)c1 | n |
| O=[N+]([O-])c1cccc(-c2nnc3c4ccccc4c4ccccc4n23)c1 | n |
| Cc1c(-c2cccc(Cl)c2)nc2ccccc2c1C(=O)OCC(=O)N(C)C1CCS(=O)(=O)C1 (stereo not given) | n |
| Cc1ccc(NC(=S)NC2CCCC2)cc1 | n |
| CCC(C)(C)NC(=O)CN(C(=O)C(=O)Nc1ccc2c(c1)OCCO2)C(C)(C)CC | n |
| CCn1c(=O)c([N+](=O)[O-])c(NCc2ccc3c(c2)OCO3)c2ccccc21 | n |
| O=S(=O)(Cc1noc(-c2ccc(OC(F)(F)F)cc2)n1)c1ccc(F)cc1 | n |

Dear colleague, could you share the recorded outcome for "CNc1ccc(NC(C)=O)cc1[N+](=O)[O-]" when you have a moment?
n

Dear colleague, could you share the recorded outcome for "C/C=C/C(=O)Nc1nnc(C(C)C)s1" when you have a moment?
n

Dear colleague, could you share the recorded outcome for "CCOC(=O)c1c(N)sc2c1CCCC2=O" when you have a moment?
n

Dear colleague, could you share the recorded outcome for "O=C(Cn1cnc2c(cnn2-c2ccccc2)c1=O)NCc1ccccc1" when you have a moment?
n

Dear colleague, could you share the recorded outcome for COc1ccc(NC(=S)NC2CCS(=O)(=O)C2)cc1 (stereo not given) when you have a moment?
y

Dear colleague, could you share the recorded outcome for "O=c1[nH]c2ccccc2n2c(-c3ccccc3)nnc12" when you have a moment?
y

Dear colleague, could you share the recorded outcome for CC(NC(=O)C(=O)NN=C1CCC(C(C)(C)C)CC1)c1ccccc1 (stereo not given) when you have a moment?
n

Dear colleague, could you share the recorded outcome for "COC(=O)c1cc2occc2n1Cc1nc(-c2ccccc2C)oc1C" when you have a moment?
n
